Values were extracted from the kinase profiling compilation of Christmann-Franck et al. (2016).

target: MAPK13 (human); experiment: radiometric filter-binding kinase assay; conditions: compound 10.0 µM
# residual activity per record follows

- compound: "COc1ccc2c(c1)c1c3c(c4c5ccccc5n(C)c4c1n2CC(O)CN(C)C)C(=O)NC3=O (stereo unspecified)"
  study_target: "MAPK13 (human)"
  residual activity: "37%"
- compound: "NC(=O)c1cc2c(-c3cccc(-c4ccccc4)c3)cnc(N)c2s1"
  study_target: "MAPK13 (human)"
  residual activity: "36%"
- compound: "N#Cc1c(O)c2c(-c3ccc(-c4ccccc4O)cc3)csc2[nH]c1=O"
  study_target: "MAPK13 (human)"
  residual activity: "107%"
- compound: "CCNc1nc(Nc2cc(F)c(C(=O)N3CCOCC3)cc2OC)ncc1C(F)(F)F"
  study_target: "MAPK13 (human)"
  residual activity: "98%"
- compound: "O=c1c(O)c(-c2ccc(O)c(O)c2)oc2cc(O)c(O)c(O)c12"
  study_target: "MAPK13 (human)"
  residual activity: "97%"
- compound: "CCCC(CCC)C(=O)O"
  study_target: "MAPK13 (human)"
  residual activity: "95%"
- compound: "COC(=O)/C=C/C(=O)OC"
  study_target: "MAPK13 (human)"
  residual activity: "92%"
- compound: "CCOC(=O)c1ccc(N2NC(=O)/C(=C/c3ccc([N+](=O)[O-])o3)C2=O)cc1"
  study_target: "MAPK13 (human)"
  residual activity: "106%"
- compound: "c1ccc2c(-c3cnn4cc(-c5ccc(N6CCNCC6)cc5)cnc34)ccnc2c1"
  study_target: "MAPK13 (human)"
  residual activity: "72%"
- compound: "CNc1nc(-c2ccc3c(N)n[nH]c3c2)cc(N2C[C@@H](C(=O)NC3CCCCC3)CC[C@H]2C)n1"
  study_target: "MAPK13 (human)"
  residual activity: "101%"
- compound: "O=C(N[C@@H](COc1ccc2[nH]c(=O)[nH]c2c1)c1ccccc1)c1cccn(Cc2ccc(F)c(F)c2)c1=O"
  study_target: "MAPK13 (human)"
  residual activity: "94%"
- compound: "Oc1ccc(/C=C/c2cc(O)cc(O)c2)cc1"
  study_target: "MAPK13 (human)"
  residual activity: "91%"
- compound: "C=CC(=O)N1CCC[C@@H](n2nc(-c3ccc(Oc4ccccc4)cc3)c3c(N)ncnc32)C1"
  study_target: "MAPK13 (human)"
  residual activity: "80%"
- compound: "Oc1ccc2ccccc2c1SSc1c(O)ccc2ccccc12"
  study_target: "MAPK13 (human)"
  residual activity: "104%"
- compound: "NCC(=O)Nc1ccc(-n2nc(C(F)(F)F)cc2-c2ccc3c(ccc4ccccc43)c2)cc1"
  study_target: "MAPK13 (human)"
  residual activity: "70%"
- compound: "NC(=O)c1ccc(-c2ccc(Oc3cncc4sc(-c5nn[nH]n5)cc34)cc2)cc1"
  study_target: "MAPK13 (human)"
  residual activity: "54%"
- compound: "COc1cc2ncn(-c3cc(OCc4ccccc4S(C)(=O)=O)c(C#N)s3)c2cc1OC"
  study_target: "MAPK13 (human)"
  residual activity: "86%"
- compound: "O=C(O)c1cc(N=Nc2ccc(S(=O)(=O)Nc3ccccn3)cc2)ccc1O"
  study_target: "MAPK13 (human)"
  residual activity: "103%"
- compound: "O=C1Nc2nc(-c3c(O)cccc3OCC3CC3)cc(C3CCCNC3)c2CO1 (stereo unspecified)"
  study_target: "MAPK13 (human)"
  residual activity: "73%"
- compound: "C[C@H]1CCCC(=O)CCC/C=C/c2cc(O)cc(O)c2C(=O)O1"
  study_target: "MAPK13 (human)"
  residual activity: "87%"
- compound: "O=C(O)c1ccc(-c2c[nH]c3ncc(-c4ccccc4)cc23)cc1C1CCCC1"
  study_target: "MAPK13 (human)"
  residual activity: "62%"
- compound: "Cc1nc(-c2ccc(OCC(C)C)c(C#N)c2)sc1C(=O)O"
  study_target: "MAPK13 (human)"
  residual activity: "97%"
- compound: "FC(F)(F)c1ccc(-c2ccc(Oc3cncc4sc(-c5nn[nH]n5)cc34)cc2)cc1"
  study_target: "MAPK13 (human)"
  residual activity: "77%"
- compound: "NC(=O)c1c(NC(=O)C2CC2)sc2c1CCCC2"
  study_target: "MAPK13 (human)"
  residual activity: "97%"
- compound: "CC(C)(C#N)c1ccc(N2C(=O)OCc3cnc4ccc(-c5cnc6ccccc6c5)cc4c32)cc1"
  study_target: "MAPK13 (human)"
  residual activity: "95%"
- compound: "CCCCCc1ccc(/C=C/[C@H](O)[C@@H](CO)NC)cc1"
  study_target: "MAPK13 (human)"
  residual activity: "90%"
- compound: "N#Cc1c(C2CCNCC2)cc(-c2c(O)cccc2OCC2CC2)nc1N"
  study_target: "MAPK13 (human)"
  residual activity: "68%"
- compound: "Cc1ccc(Sc2cnc(Nc3cccc(Br)n3)s2)cc1C(=O)N1CCN(C(=O)CN)CC1"
  study_target: "MAPK13 (human)"
  residual activity: "5%"
- compound: "Nc1cccc2c1CN(C1CCC(=O)NC1=O)C2=O (stereo unspecified)"
  study_target: "MAPK13 (human)"
  residual activity: "123%"
- compound: "Cc1cc(SCc2sc(-c3ccc(C(F)(F)F)cc3)nc2C)ccc1OCC(=O)O"
  study_target: "MAPK13 (human)"
  residual activity: "105%"
- compound: "O=C(Nc1ccccc1-c1cn2c(CN3CCNCC3)csc2n1)c1cnc2ccccc2n1"
  study_target: "MAPK13 (human)"
  residual activity: "85%"
- compound: "CCc1cncnc1N1CCN(Cc2nc3cc(C(F)(F)F)ccc3[nH]2)CC1"
  study_target: "MAPK13 (human)"
  residual activity: "91%"
- compound: "O=C(NOC[C@H](O)CO)c1ccc(F)c(F)c1Nc1ccc(I)cc1Cl"
  study_target: "MAPK13 (human)"
  residual activity: "97%"
- compound: "O=C1NC(=S)N[C@@H]1Cc1c[nH]c2ccccc12"
  study_target: "MAPK13 (human)"
  residual activity: "98%"
- compound: "CC(C)C[C@H](NC(=O)CNC(=O)c1cc(Cl)ccc1Cl)B1OC(=O)CC(CC(=O)O)(C(=O)O)O1 (stereo partly specified)"
  study_target: "MAPK13 (human)"
  residual activity: "98%"
- compound: "NC1(c2ccc(-c3nc4ccn5c(=O)[nH]nc5c4cc3-c3ccccc3)cc2)CCC1"
  study_target: "MAPK13 (human)"
  residual activity: "106%"
